Counter-ions that a name gives are not always drawn.
For each record, write down the corresponding melting point.

A selection of reference data follows.
compound	measured-property	observed-value
COc1cc(OC)c2c(=O)[nH]c(-c3ccc(OCCO)c(OC)c3)nc2c1	melting point	246 to 248 °C
Cc1cc(-c2nc3ccccc3c(=O)[nH]2)cc(C)c1OCCO	melting point	260 to 261 °C
Cc1cc(-c2nc3ccc(CN4CCOCC4)cc3c(=O)[nH]2)cc(C)c1O (as salt: hydrochloride)	melting point	284 to 286 °C
COc1cc(OC)c2c(=O)[nH]c(-c3cc(C)c(OCC(=O)O)c(C)c3)nc2c1	melting point	270 to 272 °C
COc1cc(OC)c2cnc(-c3cc(C)c(O)c(C)c3)cc2c1 (as salt: hydrochloride)	melting point	255 to 256 °C
O=c1[nH]c(-c2ccc3c(c2)OCCO3)nc2ccccc12	melting point	267 to 268 °C (dec.)
Cc1cc(-c2cc3ccc(CN4CCOCC4)cc3c(=O)[nH]2)cc(C)c1O (as salt: hydrochloride)	melting point	281 to 283 °C
COc1cc(OC)c2c(=O)[nH]c(-c3cc(C)c(OCCN(C)C)c(C)c3)cc2c1 (as salt: hydrochloride)	melting point	261 to 263 °C

Hey, quick one: what's melting point for each of these?
1. Cc1cc(-c2nc3ccccc3c(=O)[nH]2)cc(C)c1OCCN1CCOCC1 (as salt: hydrochloride)
2. COc1cc(OC)c2c(=O)[nH]c(-c3ccc(NC(=O)CO)cc3)nc2c1

300 to 302 °C
318 to 319 °C

Source listed as patent US10532054B2.
